Provide the reported viability, T/C of each item.
# Test system: LG0567-F671-PDC KRAS tumor spheroid viability;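 also: drug exposure lasted seven days after spheroids formed for three days; 100% = DMSO vehicle control viability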
# assay.overview: Anticancer human tumor LG0567-F671-PDC patient-derived lung adenocarcinoma cell line growth inhibition [KRAS2]
# measurement.conditions: second compound 1 µM; first compound 0.00316 µM; stronger effect = lower value; spheroids with HUVEC and MSC
Give bare numbers, in %.

The examples below pair each entry with its known result.
| molecule | viability, T/C (%) |
| --- | --- |
| Cn1ncnc1[C@H]1c2n[nH]c(=O)c3cc(F)cc(c23)N[C@@H]1c1ccc(F)cc1 + C=CC(=O)N1CCN(c2nc(OCC3CCCN3C)nc3c2CCN(c2cccc4cccc(C)c24)C3)CC1CC#N | 35.3 |
| CC(C)n1nc(-c2ccc3oc(N)nc3c2)c2c(N)ncnc21 + CC1OCC2(CCN(c3cnc(Sc4ccnc(N)c4Cl)c(N)n3)CC2)C1N | 11.4 |
| Cn1ncnc1[C@H]1c2n[nH]c(=O)c3cc(F)cc(c23)N[C@@H]1c1ccc(F)cc1 + C=CC(=O)N1CCN(c2nc(=O)n(-c3c(C)ccnc3C(C)C)c3nc(-c4c(O)cccc4F)c(F)cc23)C(C)C1 | 27.1 |

Give one value of viability, T/C per listed molecule.
1. Cn1ncnc1[C@H]1c2n[nH]c(=O)c3cc(F)cc(c23)N[C@@H]1c1ccc(F)cc1 + COc1cc2nc(C)nc(NC(C)c3cc(N)cc(C(F)(F)F)c3)c2cc1OC1CCOC1
2. CN(C)C/C=C/C(=O)Nc1cc2c(Nc3ccc(F)c(Cl)c3)ncnc2cc1O[C@H]1CCOC1 + CC1OCC2(CCN(c3cnc(Sc4ccnc(N)c4Cl)c(N)n3)CC2)C1N
3. CC(=O)Nc1cccc(-n2c(=O)n(C3CC3)c(=O)c3c(Nc4ccc(I)cc4F)n(C)c(=O)c(C)c32)c1 + CC1OCC2(CCN(c3cnc(Sc4ccnc(N)c4Cl)c(N)n3)CC2)C1N

Ans.
1: 58.6; 2: 96.2; 3: 8.6

Give one value of viability, T/C per listed molecule.
1. CC(C)n1nc(-c2ccc3oc(N)nc3c2)c2c(N)ncnc21 + C=CC(=O)N1CCN(c2nc(=O)n(-c3c(C)ccnc3C(C)C)c3nc(-c4c(O)cccc4F)c(F)cc23)C(C)C1
2. CN(C)C/C=C/C(=O)Nc1cc2c(Nc3ccc(F)c(Cl)c3)ncnc2cc1O[C@H]1CCOC1 + C=CC(=O)N1CCN(c2nc(OCC3CCCN3C)nc3c2CCN(c2cccc4cccc(C)c24)C3)CC1CC#N
3. Cn1ncnc1[C@H]1c2n[nH]c(=O)c3cc(F)cc(c23)N[C@@H]1c1ccc(F)cc1 + CNCc1ccccc1-c1csc(C(C)Nc2nc(C)nc3cc(OC)c(OC)cc23)c1

Ans.
1. 14
2. 25.1
3. 53.7

Give one value of viability, T/C per listed molecule.
1. CN(C)C/C=C/C(=O)Nc1cc2c(Nc3ccc(F)c(Cl)c3)ncnc2cc1O[C@H]1CCOC1 + C=CC(=O)N1CCN(c2nc(=O)n(-c3c(C)ccnc3C(C)C)c3nc(-c4c(O)cccc4F)c(F)cc23)C(C)C1
2. Cn1ncnc1[C@H]1c2n[nH]c(=O)c3cc(F)cc(c23)N[C@@H]1c1ccc(F)cc1 + CC1OCC2(CCN(c3cnc(Sc4ccnc(N)c4Cl)c(N)n3)CC2)C1N

Ans.
[24.5, 21.9]
